- System: 299254-011-R-J1-PDC complex spheroids viability;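 also: spheroids exposed to the agents for seven days before readout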
- procedure-text: Anticancer human tumor 299254-011-R-J1-PDC patient-derived melanoma cell line growth inhibition [GQUAD]; active = viability on the fitted dose curve at most 10% of control; inactive = the rest
- experimental-conditions: second compound 10 µM; first compound 0.1 µM
// allowed return values: active, inactive

Look up the recorded call for Nc1ccn(C2OC(CO)C(O)C2(F)F)c(=O)n1 (configuration not stated) + Cc1cnc(CNC(=O)c2c(=O)c3ccc(N4CCCN(C)CC4)nc3n3c2sc2ccccc23)cn1 in this test.
inactive

Look up the recorded call for CC(C)(O)C1CCC(Nc2ccc3ncc(-c4cccc(C(F)(F)F)c4)n3n2)CC1 (configuration not stated) + CN(C)c1ccc(Nc2c3ccc(NC(=O)CCN4CCCC4)cc3nc3cc(NC(=O)CCN4CCCC4)ccc23)cc1 in this test.
inactive

Look up the recorded call for CCCS(=O)(=O)Nc1ccc(F)c(C(=O)c2c[nH]c3ncc(-c4ccc(Cl)cc4)cc23)c1F + Cc1[nH]c2ccc(F)cc2c1-c1nc2c3cccnc3c3ncccc3c2[nH]1 in this test.
inactive

Look up the recorded call for C=CC(=O)N1CCN(c2nc(=O)n(-c3c(C)ccnc3C(C)C)c3nc(-c4c(O)cccc4F)c(F)cc23)C(C)C1 (configuration not stated) + Cc1cnc(CNC(=O)c2c(=O)c3ccc(N4CCCN(C)CC4)nc3n3c2sc2ccccc23)cn1 in this test.
active

Look up the recorded call for C#Cc1c(F)ccc2cc(O)cc(-c3ncc4c(N5CC6CCC(C5)N6)nc(OCC56CCCN5CC(F)C6)nc4c3F)c12 (configuration not stated) + Cc1[nH]c2ccc(F)cc2c1-c1nc2c3cccnc3c3ncccc3c2[nH]1 in this test.
inactive

Look up the recorded call for C=CCn1c(=O)c2cnc(Nc3ccc(N4CCN(C)CC4)cc3)nc2n1-c1cccc(C(C)(C)O)n1 + Cc1cnc(CNC(=O)c2c(=O)c3ccc(N4CCCN(C)CC4)nc3n3c2sc2ccccc23)cn1 in this test.
inactive

Look up the recorded call for CC(C)(O)C1CCC(Nc2ccc3ncc(-c4cccc(C(F)(F)F)c4)n3n2)CC1 (configuration not stated) + Cc1[nH]c2ccc(F)cc2c1-c1nc2c3cccnc3c3ncccc3c2[nH]1 in this test.
inactive
